- Tested on: MCF7
- method: percentage of EdU-negative (G0-arrested) nuclei per well, 72 h; higher = more G0 arrest;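 note: secreted proteins added to cultured cells, EdU pulse at the end, nuclei found by Hoechst imaging, EdU status from nuclear versus surrounding ring intensity ratio, PBS as neutral control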
- experimental-conditions: protein concentration 0.3125 µM; reference: sequence is the full UniProt precursor, the tested protein was the secreted form or ectodomain
reported-property: percentage of EdU-negative
Kindly format the answer as number then unit.

Lab request: please report percentage of EdU-negative under test system MCF7 for MNCVCRLVLVVLSLWPDTAVAPGPPPGPPRVSPDPRAELDSTVLLTRSLLADTRQLAAQLRDKFPADGDHNLDSLPTLAMSAGALGALQLPGVLTRLRADLLSYLRHVQWLRRAGGSSLKTLEPELGTLQARLDRLLRRLQLLMSRLALPQPPPDPPAPPLAPPSSAWGGIRAAHAILGGLHLTLDWAVRGLLLLKTRL
25.4%

Lab request: please report percentage of EdU-negative under test system MCF7 for MKALLALPLLLLLSTPPCAPQVSGIRGDALERFCLQQPLDCDDIYAQGYQSDGVYLIYPSGPSVPVPVFCDMTTEGGKWTVFQKRFNGSVSFFRGWNDYKLGFGRADGEYWLGLQNMHLLTLKQKYELRVDLEDFENNTAYAKYADFSISPNAVSAEEDGYTLFVAGFEDGGAGDSLSYHSGQKFSTFDRDQDLFVQNCAALSSGAFWFRSCHFANLNGFYLGGSHLSYANGINWAQWKGFYYSLKRTEMKIRRA
26.2%

Lab request: please report percentage of EdU-negative under test system MCF7 for MGSSSFLVLMVSLVLVTLVAVEGVKEGIEKAGVCPADNVRCFKSDPPQCHTDQDCLGERKCCYLHCGFKCVIPVKELEEGGNKDEDVSRPYPEPGWEAKCPGSSSTRCPQK [Q8WWY7]
24%

Lab request: please report percentage of EdU-negative under test system MCF7 for MAAPSGGWNGVGASLWAALLLGAVALRPAEAVSEPTTVAFDVRPGGVVHSFSHNVGPGDKYTCMFTYASQGGTNEQWQMSLGTSEDHQHFTCTIWRPQGKSYLYFTQFKAEVRGAEIEYAMAYSKAAFERESDVPLKTEEFEVTKTAVAHRPGAFKAELSKLVIVAKASRTEL [Q969H8]
24.4%

----------
- Tested on: hTERT-HMEC
- method: percentage of EdU-negative (G0-arrested) nuclei per well, 72 h; higher = more G0 arrest
- experimental-conditions: protein concentration 0.225 µM; reference: sequence is the full UniProt precursor, the tested protein was the secreted form or ectodomain
Kindly state percentage of EdU-negative for each of the entries shown.
Number only, in %; omit the unit.

Lab request: please report percentage of EdU-negative under test system hTERT-HMEC for MDLSRPRWSLWRRVFLMASLLACGICQASGQIFITQTLGIKGYRTVVALDKVPEDVQEYSWYWGANDSAGNMIISHKPPSAQQPGPMYTGRERVNREGSLLIRPTALNDTGNYTVRVVAGNETQRATGWLEVLELGSNLGISVNASSLVENMDSVAADCLTNVTNITWYVNDVPTSSSDRMTISPDGKTLVILRVSRYDRTIQCMIESFPEIFQRSERISLTVAYGPDYVLLRSNPDDFNGIVTAEIGSQVEMECICYSFLDLKYHWIHNGSLLNFSDAKMNLSSLAWEQMGRYRCTVENPVTQLIMYMDVRIQAPHEDLTCCPQRFLHLRIHGDVPHHADSAGWRLHLWSPDPCSDQPLLNQDKSGSMSVHPRPEDKTRRASR [A8MTB9]
4.46

Lab request: please report percentage of EdU-negative under test system hTERT-HMEC for MAWPLCTLLLLLATQAVALAWSPQEEDRIIEGGIYDADLNDERVQRALHFVISEYNKATEDEYYRRLLRVLRAREQIVGGVNYFFDIEVGRTICTKSQPNLDTCAFHEQPELQKKQLCSFQIYEVPWEDRMSLVNSRCQEA
5.26

Lab request: please report percentage of EdU-negative under test system hTERT-HMEC for MRRASRDYTKYLRGSEEMGGGPGAPHEGPLHAPPPPAPHQPPAASRSMFVALLGLGLGQVVCSVALFFYFRAQMDPNRISEDGTHCIYRILRLHENADFQDTTLESQDTKLIPDSCRRIKQAFQGAVQKELQHIVGSQHIRAEKAMVDGSWLDLAKRSKLEAQPFAHLTINATDIPSGSHKVSLSSWYHDRGWAKISNMTFSNGKLIVNQDGFYYLYANICFRHHETSGDLATEYLQLMVYVTKTSIKIPSSHTLMKGGSTKYWSGNSEFHFYSINVGGFFKLRSGEEISIEVSNPSLLDPDQDATYFGAFKVRDID
5.25

Lab request: please report percentage of EdU-negative under test system hTERT-HMEC for MATHHTLWMGLALLGVLGDLQAAPEAQVSVQPNFQQDKFLGRWFSAGLASNSSWLREKKAALSMCKSVVAPATDGGLNLTSTFLRKNQCETRTMLLQPAGSLGSYSYRSPHWGSTYSVSVVETDYDQYALLYSQGSKGPGEDFRMATLYSRTQTPRAELKEKFTAFCKAQGFTEDTIVFLPQTDKCMTEQ
7.39

Lab request: please report percentage of EdU-negative under test system hTERT-HMEC for MPGRSCVALVLLAAAVSCAVAQHAPPWTEDCRKSTYPPSGPTYRGAVPWYTINLDLPPYKRWHELMLDKAPVLKVIVNSLKNMINTFVPSGKIMQVVDEKLPGLLGNFPGPFEEEMKGIAAVTDIPLGEIISFNIFYELFTICTSIVAEDKKGHLIHGRNMDFGVFLGWNINNDTWVITEQLKPLTVNLDFQRNNKTVFKASSFAGYVGMLTGFKPGLFSLTLNERFSINGGYLGILEWILGKKDVMWIGFLTRTVLENSTSYEEAKNLLTKTKILAPAYFILGGNQSGEGCVITRDRKESLDVYELDAKQGRWYVVQTNYDRWKHPFFLDDRRTPAKMCLNRTSQENISFETMYDVLSTKPVLNKLTVYTTLIDVTKGQFETYLRDCPDPCIGW
12.9

Lab request: please report percentage of EdU-negative under test system hTERT-HMEC for MKGILVAGITAVLVAAVESLSCVQCNSWEKSCVNSIASECPSHANTSCISSSASSSLETPVRLYQNMFCSAENCSEETHITAFTVHVSAEEHFHFVSQCCQGKECSNTSDALDPPLKNVSSNAECPACYESNGTSCHGKPWKCYEEEQCVFLVAELKNDIESKSLVLKGCSNVSNATCQFLSGENKTLGGVIFRKFECANVNSLTPTSAPTTSHNVGSKASLYLLALASLLLRGLLP [Q6UX82]
5.88
